Data origin, for the record: ChEMBL document CHEMBL1201862

Test system: MDA-N
test_method_notes: NCI tumour cell line growth inhibition, 48 h
Activity calls are given as the source filed them. Cut-off read from the data, not from the text of the source: active = GI50 up to about 1.1 µM and inactive = higher.
Classes used: active, inactive

>>> classification("COC(=O)c1ccc(CCC2=CC(=O)C(Br)=CC2=O)cc1")
"inactive"
>>> classification("NC(CCP(=O)(O)CCC1C=CC=CC1)C(=O)O (configuration not stated)")
"inactive"
>>> classification("CC(=O)C(=[N+]=[N-])C(=O)N(C)CCC#N")
"inactive"
>>> classification("Nc1nc(SCC(=O)c2ccccc2)nc2nc3c(c(-c4ccccc4)c12)CCCC3")
"inactive"
>>> classification("CCOP1(=O)CC(C)=C(Cl)C(O)C1 (configuration not stated)")
"inactive"
>>> classification("O=[N+]([O-])c1ccc2c(c1)Sc1ccccc1N2")
"inactive"
>>> classification("NC(=O)NN=C1Cc2ccccc2C1")
"inactive"
>>> classification("C=C[C@]1(C)CC(=O)C(C(C)C=O)[C@]12C(=O)Oc1cccc(C)c1C2=O (some centres not stated)")
"inactive"
>>> classification("CC(C(=O)N1C(=O)N(C(=O)C(C)C(O)c2ccccc2)C(c2ccccc2)C1c1ccccc1)C(O)c1ccccc1 (configuration not stated)")
"inactive"
>>> classification("N=c1c2c(-c3ccccc3)c[nH]c2ncn1N")
"inactive"
>>> classification("OCC1OC(n2cnc3c(SCc4ccccc4)ncnc32)C(O)C1O (configuration not stated)")
"inactive"
>>> classification("C[N+](C)(C)[BH-](Br)C(O)O (configuration not stated)")
"inactive"
>>> classification("CCOC(=O)CSc1nc(N)c2c(-c3ccc(OC)c(OC)c3)c3c(nc2n1)CCCC3")
"inactive"
>>> classification("CCCCCCc1cc2cc(-c3cn4ccccc4n3)c(=O)oc2cc1O")
"inactive"
>>> classification("CC1=C(O)C(O)=C(C2=C(O)C(O)=C(C)C(=O)C2=O)C(=O)C1=O")
"inactive"
>>> classification("c1csc(-c2cscc2-c2ccsc2)c1")
"inactive"
>>> classification("CCN(CCCl)c1cc(CN(C)C)cc(NC(=O)c2ccc(C(=O)Nc3ccccc3)cc2)c1")
"active"
>>> classification("COc1ccc(Nc2nc3cc(C(F)(F)F)ccc3nc2C(=O)O)cc1")
"inactive"
>>> classification("OC[C@@H](O)[C@H](O)[C@H](O)[C@@H](O)C1SCCCS1")
"inactive"
>>> classification("Oc1ccc(SCc2cc(O)c(O)c(O)c2)cc1")
"inactive"
>>> classification("N#Cc1ccc(/N=C(/NCC(=O)O)Nc2cccc3ccccc23)cc1")
"inactive"
>>> classification("CC(C)(C)N1Cc2ccccc2/C(=C/Sc2ccccc2)C1=O")
"inactive"
>>> classification("CCN1CSC(=S)N(CC)C1")
"inactive"
>>> classification("CN(C)c1ccc(/N=N/c2ccc3[nH]cnc3c2)cc1")
"inactive"
>>> classification("C=C(CN(C)C)C(=O)c1ccc(Oc2ccccc2)cc1")
"inactive"
>>> classification("C=CC1(CBr)CCC(C(C)(C)Br)O1 (configuration not stated)")
"inactive"
>>> classification("O=C(Cn1c2c(c3ccccc31)CCCC2)NC1CCCCC1")
"inactive"
>>> classification("[O-]c1c2cc(-[n+]3c(-c4ccccc4)cc(-c4ccccc4)cc3-c3ccccc3)cc1CO[C@@H](c1ccccc1)[C@H](c1ccccc1)OCc1cccc(n1)CO[C@@H](c1ccccc1)[C@H](c1ccccc1)OC2")
"active"
>>> classification("C[C@]12CC[C@@H]3c4ccc(O)cc4CC[C@H]3[C@@H]1C/C(=C\\c1ccc(C#N)cc1)C2=O")
"inactive"
>>> classification("CCOC(=O)c1nc2ccccc2nc1Oc1cc(OC)cc(OC)c1")
"inactive"
>>> classification("CC(=O)N(CN1C(=O)CCC1C(=O)O)c1cccc(O)c1 (configuration not stated)")
"inactive"
>>> classification("c1ccc(/C(=N\\Nc2nc3ccccc3s2)c2ccccn2)cc1")
"inactive"
>>> classification("O=C1NC(=O)C(F)(n2cc(F)c(=O)[nH]c2=O)C(O)N1 (configuration not stated)")
"inactive"
>>> classification("O=c1c2cc(S(=O)(=O)O)ccc2nc(COc2ccc(Oc3ccc(Cl)cc3Cl)cc2)n1-c1ccc(Oc2ccc(Cl)cc2)cc1Cl")
"inactive"
>>> classification("CN1C(=O)C2C(=O)N(Cc3ccccc3)CC(=O)N2c2cccnc21 (configuration not stated)")
"inactive"
>>> classification("COc1ccc(S(=O)(=O)NC(CCC(=O)NC(N)=O)C(=O)NC(N)=O)cc1 (configuration not stated)")
"inactive"
>>> classification("COC(=O)c1ccc(NCc2cc(O)ccc2O)cc1")
"inactive"
>>> classification("Nc1nc2c(C(=O)O)c3ccc([N+](=O)[O-])cc3c(=O)n2c2ccccc12")
"inactive"
>>> classification("Cc1cc(Cc2cc(C)cc(C(C)(C)C)c2O)c(O)c(Cc2cc(C)cc(C(C)(C)C)c2O)c1")
"inactive"
>>> classification("CC1(C)CC[C@]2(C(=O)O)CC[C@]3(C)C(=CC[C@@H]4[C@@]5(C)C[C@H](O)[C@H](O)[C@@](C)(CO)C5=CC[C@]43C)[C@@H]2C1")
"inactive"
>>> classification("N=C(N)SCc1cccc2c(=O)cc(-c3ccccc3)oc12")
"inactive"
>>> classification("COC(=O)C1=COC(C)C2CN3CCc4c([nH]c5cc(OC)c(OC)cc45)C3CC12 (configuration not stated)")
"inactive"
